# assayed_target: T1, Human VSIG4-L-Fc (human)
# T1 construct: also called hVSIG4-L-Fc; hVSIG4-L
# T1 sequence (chain, as listed by the source limits assumed): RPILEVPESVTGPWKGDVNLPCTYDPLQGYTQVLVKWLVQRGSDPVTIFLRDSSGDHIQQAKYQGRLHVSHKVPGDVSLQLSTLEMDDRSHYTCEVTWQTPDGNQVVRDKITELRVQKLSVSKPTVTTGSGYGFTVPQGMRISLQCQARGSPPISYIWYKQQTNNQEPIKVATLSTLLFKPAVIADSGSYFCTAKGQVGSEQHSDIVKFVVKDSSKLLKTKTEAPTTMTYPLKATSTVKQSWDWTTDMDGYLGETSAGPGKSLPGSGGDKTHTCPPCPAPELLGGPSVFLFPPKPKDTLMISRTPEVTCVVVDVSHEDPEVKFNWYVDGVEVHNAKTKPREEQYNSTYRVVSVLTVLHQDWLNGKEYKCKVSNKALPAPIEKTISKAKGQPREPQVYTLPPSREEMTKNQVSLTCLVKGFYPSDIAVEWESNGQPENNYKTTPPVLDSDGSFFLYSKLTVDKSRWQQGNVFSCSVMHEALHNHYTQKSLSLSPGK
# experiment: BLI binning on hVSIG4-L-Fc, competitor 15C03 first;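 note: normalized to binding of second antibody without first competitor antibody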
Label y for high-side normalized maximum binding nm shift (at or above 0.8 normalized) and n for low-side normalized maximum binding nm shift (below it).

Completed entries (count: 4):
INSERT INTO measurements (binder, class_name) VALUES
  ('13H11 mouse/human chimeric IgG4 (S228P) kappa (antibody, V domains shown) VH: QIQLVQSGPELKKPGETVKISCKASGYTFENFGMNWVKQAPGKGLKWMGWINTYTGEATYADDFKGRFAFSLETSASTAYLQINNLKNEDTATYFCARDGGFRHFDVWGAGTTVTVSS VL: ETTVTQSPASLSVATGEKVTIRCITSTDIDDDMNWYQQKPGEPPKLLISEGNTLRPGVPSRFSSSGYGTDFVFTIENMLSEDVADYYCLQSDNLPLTFGAGTKLELKR', 'y'),
  ('12A08 mouse/human chimeric IgG4 (S228P) kappa (antibody, V domains shown) VH: EVMLVESGGGLVKPGGSLKLSCAASGFTFDDFYMYWVRQTPEKRLEWVASISDGGTYTYYPDSVKGRFTISRDNAKNTLYLQLSSLKSEDTAMYYCARGVDKYYYAMDYWGQGTSVTVSS VL: QILLTQSPAIMSASPGEKVTITCSASSSVSYMHWFQQKPGTSPKLWIYSTSNLASGVPARFSGSGSGTSYSLTISRMEAEDAATYYCQQRSSYPLTFGAGTKLELKR', 'y'),
  ('15C03 mouse/human chimeric IgG4 (S228P) kappa (antibody, V domains shown) VH: EVKLLESGPGLVKPSQSLSLTCTVTGYSITSDYAWNWIRQFPGNKLEWMGYISYSGSTRYNPSLKSRISITRDTSNNQFFLQLNSVTTEDTATYYCARSGYAAMDYWGQGTSVTVSS VL: ENVLTQSPAIMSASPGEKVTMTCRASSSVSSSYLHWYQQKSGASPKLWIYSTSNLASGVPARFSGSGSGTSYSLTISSVEAEDAATYYCQQYSGYPLTFGSGTKLEIKR', 'n'),
  ('16E10 mouse/human chimeric IgG4 (S228P) kappa (antibody, V domains shown) VH: QVQLQQSGAELVRPGTSVKISCKASGYTFTNYWLGWVKQRPGHGLEWIGDIYPGGGYTNYNEKFKGKATLTADTSSSTAYMQLSSLTSEDSAVYFCAKFYYYGSSYYFDSWGQGTTLTVSS VL: DIVLTQSPSSLSVSAGEKVTLSCKSSQSLLNSGNQENYLAWYQQKPGQPPKLLIYGASTRESGVPDRFTGSGSGTDFTLTISSVQAEDLAVYYCQNDHSYPLTFGAGTKLELKR', 'y');

Shifting focus to the binder that follows.
Quick check, normalized maximum binding nm shift >= 0.8 normalized? 12A12 mouse/human chimeric IgG4 (S228P) kappa (antibody, V domains shown) VH: QVQMKQSGAELAKPGASVKMSCKASGYTFTNYWMHWVKQRPGQGLEWIGYINPSTGYTDYNQNFKDRATLTADKSSSTAYMQLSSLTSEDSAVYYCIRGSDYYGRDYWGQGTTLTVSS VL: DIQMTQTTSSLSASLGDRVTISCRASQDISNYLNWYQQKPDGTLKLLIYYTSRLHSGVPSRFSGSGSGTDYSLTISNLEQEDIATYFCRQGNTLPWTFGGGTKLEIKR
n
